System: Trypanosoma cruzi
method_description: Antitrypanosomal activity against Trypanosoma cruzi Tulahuen 2 epimastigotes assessed as inhibition of parasite growth at 25 uM relative to control
Type: functional
particulars: read-out: GI

[
  {
    "mol_smiles": "N#Cc1c(-c2ccc(OC(F)(F)F)cc2)[n+]([O-])c2ccc(Cl)cc2[n+]1[O-]",
    "tgt": "Trypanosoma cruzi",
    "inhibition of growth at 25 µM [%]": 89.1
  },
  {
    "mol_smiles": "COc1ccc2c(c1)[n+]([O-])c(C#N)c(-c1ccc(Cl)cc1)[n+]2[O-]",
    "tgt": "Trypanosoma cruzi",
    "inhibition of growth at 25 µM [%]": 111
  },
  {
    "mol_smiles": "N#Cc1c(-c2ccc(F)cc2)[n+]([O-])c2ccc(F)cc2[n+]1[O-]",
    "tgt": "Trypanosoma cruzi",
    "inhibition of growth at 25 µM [%]": 63.8
  },
  {
    "mol_smiles": "Cc1ccc2c(c1)[n+]([O-])c(C#N)c(-c1ccc(F)cc1)[n+]2[O-]",
    "tgt": "Trypanosoma cruzi",
    "inhibition of growth at 25 µM [%]": 83.8
  },
  {
    "mol_smiles": "N#Cc1c(-c2ccc(OC(F)(F)F)cc2)[n+]([O-])c2cc(F)c(F)cc2[n+]1[O-]",
    "tgt": "Trypanosoma cruzi",
    "inhibition of growth at 25 µM [%]": 74.4
  },
  {
    "mol_smiles": "COc1ccc(-c2c(C#N)[n+]([O-])c3cc(F)c(F)cc3[n+]2[O-])cc1",
    "tgt": "Trypanosoma cruzi",
    "inhibition of growth at 25 µM [%]": 91.6
  },
  {
    "mol_smiles": "Cc1ccc2c(c1)[n+]([O-])c(C#N)c(-c1cccs1)[n+]2[O-]",
    "tgt": "Trypanosoma cruzi",
    "inhibition of growth at 25 µM [%]": 74.3
  },
  {
    "mol_smiles": "COc1ccc2c(c1)[n+]([O-])c(C#N)c(-c1ccc(OC(F)(F)F)cc1)[n+]2[O-]",
    "tgt": "Trypanosoma cruzi",
    "inhibition of growth at 25 µM [%]": 100
  },
  {
    "mol_smiles": "N#Cc1c(-c2ccccc2)[n+]([O-])c2cc(Cl)c(Cl)cc2[n+]1[O-]",
    "tgt": "Trypanosoma cruzi",
    "inhibition of growth at 25 µM [%]": 90
  },
  {
    "mol_smiles": "Cc1cc2c(cc1C)[n+]([O-])c(-c1ccc(Cl)cc1)c(C#N)[n+]2[O-]",
    "tgt": "Trypanosoma cruzi",
    "inhibition of growth at 25 µM [%]": 98.7
  },
  {
    "mol_smiles": "COc1ccc(-c2c(C#N)[n+]([O-])c3cc(Cl)ccc3[n+]2[O-])cc1",
    "tgt": "Trypanosoma cruzi",
    "inhibition of growth at 25 µM [%]": 110
  },
  {
    "mol_smiles": "N#Cc1c(-c2ccccc2)[n+]([O-])c2ccc(F)cc2[n+]1[O-]",
    "tgt": "Trypanosoma cruzi",
    "inhibition of growth at 25 µM [%]": 89.4
  },
  {
    "mol_smiles": "N#Cc1c(-c2cccs2)[n+]([O-])c2cc(F)c(F)cc2[n+]1[O-]",
    "tgt": "Trypanosoma cruzi",
    "inhibition of growth at 25 µM [%]": 82.9
  },
  {
    "mol_smiles": "N#Cc1c(-c2cccs2)[n+]([O-])c2ccc(F)cc2[n+]1[O-]",
    "tgt": "Trypanosoma cruzi",
    "inhibition of growth at 25 µM [%]": 100
  },
  {
    "mol_smiles": "N#Cc1c(-c2cccs2)[n+]([O-])c2cc(Cl)c(Cl)cc2[n+]1[O-]",
    "tgt": "Trypanosoma cruzi",
    "inhibition of growth at 25 µM [%]": 78.5
  },
  {
    "mol_smiles": "N#Cc1c(-c2ccc(OC(F)(F)F)cc2)[n+]([O-])c2ccccc2[n+]1[O-]",
    "tgt": "Trypanosoma cruzi",
    "inhibition of growth at 25 µM [%]": 100
  },
  {
    "mol_smiles": "Cc1cc2c(cc1C)[n+]([O-])c(-c1ccc(OC(F)(F)F)cc1)c(C#N)[n+]2[O-]",
    "tgt": "Trypanosoma cruzi",
    "inhibition of growth at 25 µM [%]": 79.8
  },
  {
    "mol_smiles": "N#Cc1c(-c2ccc(F)cc2)[n+]([O-])c2ccc(Cl)cc2[n+]1[O-]",
    "tgt": "Trypanosoma cruzi",
    "inhibition of growth at 25 µM [%]": 92.7
  },
  {
    "mol_smiles": "Cc1ccc(-c2c(C#N)[n+]([O-])c3cc(C)c(C)cc3[n+]2[O-])cc1",
    "tgt": "Trypanosoma cruzi",
    "inhibition of growth at 25 µM [%]": 98.2
  },
  {
    "mol_smiles": "COc1ccc2c(c1)[n+]([O-])c(C#N)c(-c1cccs1)[n+]2[O-]",
    "tgt": "Trypanosoma cruzi",
    "inhibition of growth at 25 µM [%]": 109
  },
  {
    "mol_smiles": "N#Cc1c(-c2ccccc2)[n+]([O-])c2ccccc2[n+]1[O-]",
    "tgt": "Trypanosoma cruzi",
    "inhibition of growth at 25 µM [%]": 36.9
  },
  {
    "mol_smiles": "COc1ccc(-c2c(C#N)[n+]([O-])c3ccccc3[n+]2[O-])cc1",
    "tgt": "Trypanosoma cruzi",
    "inhibition of growth at 25 µM [%]": 110
  },
  {
    "mol_smiles": "Cc1ccc(-c2c(C#N)[n+]([O-])c3cc(C(F)(F)F)ccc3[n+]2[O-])cc1",
    "tgt": "Trypanosoma cruzi",
    "inhibition of growth at 25 µM [%]": 114
  },
  {
    "mol_smiles": "N#Cc1c(-c2ccc(OC(F)(F)F)cc2)[n+]([O-])c2ccc(F)cc2[n+]1[O-]",
    "tgt": "Trypanosoma cruzi",
    "inhibition of growth at 25 µM [%]": 80.2
  },
  {
    "mol_smiles": "N#Cc1c(-c2ccc(F)cc2)[n+]([O-])c2ccccc2[n+]1[O-]",
    "tgt": "Trypanosoma cruzi",
    "inhibition of growth at 25 µM [%]": 82.8
  },
  {
    "mol_smiles": "N#Cc1c(-c2ccc(Cl)cc2)[n+]([O-])c2cc(F)c(F)cc2[n+]1[O-]",
    "tgt": "Trypanosoma cruzi",
    "inhibition of growth at 25 µM [%]": 80.9
  },
  {
    "mol_smiles": "N#Cc1c(-c2cccs2)[n+]([O-])c2ccc(Cl)cc2[n+]1[O-]",
    "tgt": "Trypanosoma cruzi",
    "inhibition of growth at 25 µM [%]": 100
  },
  {
    "mol_smiles": "COc1ccc(-c2c(C#N)[n+]([O-])c3cc(F)ccc3[n+]2[O-])cc1",
    "tgt": "Trypanosoma cruzi",
    "inhibition of growth at 25 µM [%]": 92.2
  },
  {
    "mol_smiles": "N#Cc1c(-c2ccco2)[n+]([O-])c2cc(F)c(F)cc2[n+]1[O-]",
    "tgt": "Trypanosoma cruzi",
    "inhibition of growth at 25 µM [%]": 70.7
  },
  {
    "mol_smiles": "N#Cc1c(-c2ccc(Cl)cc2)[n+]([O-])c2ccc(C(F)(F)F)cc2[n+]1[O-]",
    "tgt": "Trypanosoma cruzi",
    "inhibition of growth at 25 µM [%]": 100
  },
  {
    "mol_smiles": "Cc1ccc2c(c1)[n+]([O-])c(C#N)c(-c1ccco1)[n+]2[O-]",
    "tgt": "Trypanosoma cruzi",
    "inhibition of growth at 25 µM [%]": 68.5
  },
  {
    "mol_smiles": "Cc1ccc(-c2c(C#N)[n+]([O-])c3ccccc3[n+]2[O-])cc1",
    "tgt": "Trypanosoma cruzi",
    "inhibition of growth at 25 µM [%]": 104
  },
  {
    "mol_smiles": "N#Cc1c(-c2ccc(Cl)cc2)[n+]([O-])c2cc(Cl)c(Cl)cc2[n+]1[O-]",
    "tgt": "Trypanosoma cruzi",
    "inhibition of growth at 25 µM [%]": 89.8
  },
  {
    "mol_smiles": "N#Cc1c(-c2ccc(Cl)cc2)[n+]([O-])c2ccc(Cl)cc2[n+]1[O-]",
    "tgt": "Trypanosoma cruzi",
    "inhibition of growth at 25 µM [%]": 97.5
  }
]
